Kindly state log10 of MIC for each of the entries shown.
Test system: Enterococcus faecalis
Test: Antimicrobial activity against Enterococcus faecalis ATCC 29212 by agar dilution method
Format: functional
Could you please treat all values as log10 of MIC in mg/L?

(Q) # get_value(readout='log10 of MIC', item= CN(C)[C@@H]1C(O)=C(C(N)=O)C(=O)[C@@]2(O)C(O)=C3C(=O)c4c(O)cccc4[C@@](C)(O)[C@H]3C[C@@H]12 )
(A) 1.20

(Q) # get_value(readout='log10 of MIC', item= CCN[C@@H]1C[C@H](N)[C@@H](O[C@H]2OC(CN)=CC[C@H]2N)[C@H](O)[C@H]1O[C@H]1OC[C@](C)(O)[C@H](NC)[C@H]1O )
(A) 0.60

(Q) # get_value(readout='log10 of MIC', item= NC[C@H]1O[C@H](O[C@H]2[C@H](O)[C@@H](O[C@H]3O[C@H](CO)[C@@H](O)[C@H](N)[C@H]3O)[C@H](N)C[C@@H]2N)[C@H](O)[C@@H](O)[C@@H]1O )
(A) 1.20

(Q) # get_value(readout='log10 of MIC', item= CN[C@@H]1[C@H](O[C@H]2[C@H](O[C@H]3[C@H](O)[C@@H](O)[C@H](N=C(N)N)[C@@H](O)[C@@H]3N=C(N)N)O[C@@H](C)[C@]2(O)C=O)O[C@@H](CO)[C@H](O)[C@H]1O )
(A) 1.51

(Q) # get_value(readout='log10 of MIC', item= CCC[C@@H]1C[C@@H](C(=O)N[C@@H]([C@H]2O[C@H](SC)[C@H](O)[C@@H](O)[C@H]2O)[C@H](C)Cl)N(C)C1 )
(A) 0.60

(Q) # get_value(readout='log10 of MIC', item= CC[C@H]1OC(=O)[C@H](C)[C@@H](O[C@H]2C[C@@](C)(OC)[C@@H](O)[C@H](C)O2)[C@H](C)[C@@H](O[C@@H]2O[C@H](C)C[C@H](N(C)C)[C@H]2O)[C@](C)(O)C[C@@H](C)C(=O)[C@H](C)[C@@H](O)[C@]1(C)O )
(A) 0.30

(Q) # get_value(readout='log10 of MIC', item= NCC[C@H](O)C(=O)N[C@@H]1C[C@H](N)[C@@H](O[C@H]2O[C@H](CN)[C@@H](O)[C@H](O)[C@H]2O)[C@H](O)[C@H]1O[C@H]1O[C@H](CO)[C@@H](O)[C@H](N)[C@H]1O )
(A) 1.81

---

Tested on: Streptococcus pasteurianus
Assay: Antibacterial activity against high-level gentamicin resistant Streptococcus pasteurianus SB41 isolate carrying transposon-borne resistance gene [aac(6')Ie-aph(2'')Ia] by agar dilution method
Assay type: functional
Kindly state MIC for each of the entries shown.
Give the quantity in µg/mL, number only.

(Q) # get_value(readout='MIC', item= NCC[C@H](O)C(=O)N[C@@H]1C[C@H](N)[C@@H](O[C@H]2O[C@H](CN)[C@@H](O)[C@H](O)[C@H]2O)[C@H](O)[C@H]1O[C@H]1O[C@H](CO)[C@@H](O)[C@H](N)[C@H]1O )
(A) 32

(Q) # get_value(readout='MIC', item= CN(C)c1ccc(O)c2c1C[C@H]1C[C@H]3[C@H](N(C)C)C(O)=C(C(N)=O)C(=O)[C@@]3(O)C(O)=C1C2=O )
(A) 8
